Biological target: IRAK4 (Homo sapiens, UniProt Q9NWZ3)
Construct: endogenous in cells; host or cells: Karpas299
Sequence (Q9NWZ3 1-460): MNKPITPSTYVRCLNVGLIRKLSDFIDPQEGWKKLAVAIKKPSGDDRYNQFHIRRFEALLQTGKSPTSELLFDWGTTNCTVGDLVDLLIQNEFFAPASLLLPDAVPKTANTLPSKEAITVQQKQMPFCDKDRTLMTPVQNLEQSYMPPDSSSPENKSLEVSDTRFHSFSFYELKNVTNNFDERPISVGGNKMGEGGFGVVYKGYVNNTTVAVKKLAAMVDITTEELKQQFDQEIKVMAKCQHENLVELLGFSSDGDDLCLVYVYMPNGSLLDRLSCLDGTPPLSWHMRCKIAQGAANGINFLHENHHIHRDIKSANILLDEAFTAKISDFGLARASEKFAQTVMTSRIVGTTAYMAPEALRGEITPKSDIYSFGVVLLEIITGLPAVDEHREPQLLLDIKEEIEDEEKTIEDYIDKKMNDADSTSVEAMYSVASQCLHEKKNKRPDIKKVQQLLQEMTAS
Experiment: IRAK4 Degradation Assay with Human Serum (Karpas299, HTRF/TR-FRET)
Assay type: cell-based
Details: Karpas-299 in human serum, 24 hrs treatment; read-out: IRAK4 degradtion with human serum assay DC50
Threshold check on DC50: strictly below 7 nM is true (1); on or above 7 nM is false (0).

Report whether reported DC50 is lower than 7 nM (strictly) for `CC(C)(O)c1cc2nn([C@H]3CC[C@H](N4CCN(C(=O)C5CN(c6cc(F)c([C@H]7CCC(=O)NC7=O)c(F)c6)C5)CC4=O)CC3)cc2cc1NC(=O)c1ccc2cc(C#N)cnn12` false (0)

Report whether reported DC50 is lower than 7 nM (strictly) for `COC[C@@H]1CN([C@H]2CC[C@H](n3cc4cc(NC(=O)c5ccc6cc(C#N)cnn56)c(C(C)(C)O)cc4n3)CC2)CCN1C(=O)C1CN(c2cc(F)c([C@H]3CCC(=O)NC3=O)c(F)c2)C1` false (0)

Report whether reported DC50 is lower than 7 nM (strictly) for `COC[C@@H]1CN(C2CN(c3cc(F)c([C@H]4CCC(=O)NC4=O)c(F)c3)C2)CCN1[C@H]1CC[C@H](n2cc3cc(NC(=O)c4ccc5cc(C#N)cnn45)c(C(C)(C)O)cc3n2)CC1` true (1)

Report whether reported DC50 is lower than 7 nM (strictly) for `C[C@@H]1CN(CC2CN(c3cc(F)c([C@H]4CCC(=O)NC4=O)c(F)c3)C2)CCN1[C@H]1CC[C@H](n2cc3cc(NC(=O)c4ccc5cc(C#N)cnn45)c(C(C)(C)O)cc3n2)CC1` true (1)

====

Molecular target: IRAK4 (Homo sapiens, UniProt Q9NWZ3)
Construct: endogenous in cells; host or cells: Karpas299
Sequence (Q9NWZ3 1-460): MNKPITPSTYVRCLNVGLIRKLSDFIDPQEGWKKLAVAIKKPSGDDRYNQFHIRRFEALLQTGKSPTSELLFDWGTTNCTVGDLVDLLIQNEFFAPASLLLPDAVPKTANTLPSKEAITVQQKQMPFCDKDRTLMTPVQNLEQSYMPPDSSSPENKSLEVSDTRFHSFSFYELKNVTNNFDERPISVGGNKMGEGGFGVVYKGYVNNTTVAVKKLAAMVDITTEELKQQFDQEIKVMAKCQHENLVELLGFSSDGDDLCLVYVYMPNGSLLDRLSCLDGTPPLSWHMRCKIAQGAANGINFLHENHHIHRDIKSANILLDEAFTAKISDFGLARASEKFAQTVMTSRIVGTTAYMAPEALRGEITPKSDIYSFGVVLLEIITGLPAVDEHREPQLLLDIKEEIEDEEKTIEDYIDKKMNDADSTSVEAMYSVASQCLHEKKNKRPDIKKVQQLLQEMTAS
Test: IRAK4 Degradation Assay (Karpas299, HTRF/TR-FRET)
Assay type: cell-based
Details: Karpas-299 cells, 24 h treatment; read-out: IRAK4 in Karpas-299 (24 h) DC50
parameter: DC50 (nM)
I only need the number, in nM, no unit after it.

So, `CC(C)(O)c1cc2nn(C34CCC(N5CCN(CCc6cc(F)c([C@H]7CCC(=O)NC7=O)c(F)c6)CC5)(CC3)CC4)cc2cc1NC(=O)c1ccc2cc(C#N)cnn12` ? Its DC50 was 0.9

So, `COc1cc2nn([C@H]3CC[C@H](CN4CCN(C(=O)[C@@H]5CCN(c6cc(F)c(N7CCC(=O)NC7=O)c(F)c6)C5)CC4)CC3)cc2cc1NC(=O)c1cccn(C2CC2)c1=O` ? Its DC50 was 10

So, `COC[C@@H]1CN([C@H]2CC[C@H](n3cc4cc(NC(=O)c5ccc6cc(C#N)cnn56)c(C(C)(C)O)cc4n3)CC2)CCN1CCc1cc(F)c([C@H]2CCC(=O)NC2=O)c(F)c1` ? Its DC50 was 1

So, `[2H]C([2H])([2H])Oc1cc2nn([C@H]3CC[C@H](N4CCN(C(=O)C5CN(c6cc(F)c([C@H]7CCC(=O)NC7=O)c(F)c6)C5)CC4)CC3)cc2cc1NC(=O)c1cccc(C(F)(F)F)n1` ? Its DC50 was 0.7

So, `CC(C)(O)c1cc2nn([C@H]3CC[C@H](N4CCN(CCc5cc(F)c([C@H]6CCC(=O)NC6=O)c(F)c5)CC4)CC3)cc2cc1NC(=O)c1ccc2cc(Br)cnn12` ? Its DC50 was 1.5
